Where do these numbers come from? They come from PubChem BioAssay AID1159580.

normalized growth reference
Assay: chemical genetic growth profiling, strain panel (AID 1159580);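 further: tested at 20 µM; growth read once vehicle control cultures reached saturation at 30 °C; 1 = growth at the plate median or of vehicle wells; lower values mean less growth of the strain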
Conditions: S. cerevisiae deletion strains, growth OD, locus YLR027C, strain aat2, stronger effect = lower value
About 2,000 (36%) of roughly 5,500 compounds were called active. Inconclusive results (about 18%) are left out. Some of the results follow.

- Compound: "ClC1=C(Cl)C2(Cl)C3C4C=CC(C4)C3C1(Cl)C2(Cl)Cl (centres undefined)"
  normalized growth: "1.01 (inactive)"
- Compound: "C=C1C2CC[C@H]3[C@]4(C)C[C@H](OC5OC(CO)C(OS(=O)(=O)O)C(OS(=O)(=O)O)C5OC(=O)CC(C)C)C[C@@H](C(=O)O)[C@H]4CC[C@]3(C2)[C@H]1O (some centres undefined)"
  normalized growth: "1.01 (inactive)"
- Compound: "CC1=C(C(C)O)C2=NC1C=c1[nH]c(c(C)c1C(C)O)=Cc1[nH]c(c(CCC(=O)O)c1C)C=c1[nH]c(c(C)c1CCC(=O)O)=C2 (centres undefined)"
  normalized growth: "0.982 (inactive)"
- Compound: "Cc1cc(O)c(C=O)c(O)c1C(=O)O"
  normalized growth: "1.01 (inactive)"
- Compound: "C=Cc1c2[nH]c(c1C)C=c1[nH]c(c(C)c1C=C)=CC1N=C(C=c3[nH]c(c(C)c3CCC(=O)O)=C2)C(CCC(=O)O)=C1C (centres undefined)"
  normalized growth: "1 (inactive)"
- Compound: "CN(C)CC/C=C1\\c2ccccc2Sc2ccc(Cl)cc21"
  normalized growth: "0.881 (active)"
- Compound: "Cc1cc(O)c(C)c(O)c1C(=O)O"
  normalized growth: "0.983 (inactive)"
- Compound: "CC(C)(O)[C@@H]1[C@H]2OC(=O)[C@@H]1[C@]1(O)C[C@H]3O[C@]34C(=O)O[C@H]2[C@]14C"
  normalized growth: "1.03 (inactive)"
- Compound: "COCCc1ccc(OCC(O)CNC(C)C)cc1 (centres undefined)"
  normalized growth: "1.02 (inactive)"

---

Assay: chemical genetic growth profiling, strain panel (AID 1159580);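 further: tested at 20 µM; growth read once vehicle control cultures reached saturation at 30 °C; 1 = growth at the plate median or of vehicle wells; lower values mean less growth of the strain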
Conditions: S. cerevisiae deletion strains, growth OD, locus YHR079C, strain IRE1, stronger effect = lower value
The whole screen tested about 5,500 compounds, of which about 2,000 (36%) were called active. Inconclusive results (about 18%) are left out. This is one part of the list.
Consider the cut-off 1. If the recorded normalized growth is strictly smaller, the label is satisfied; if not, the label is not satisfied.

- Molecule: "CCOC(=O)[C@H](CCc1ccccc1)N[C@H]1CCc2ccccc2N(CC(=O)O)C1=O"
  Assigned class: "satisfied"
- Molecule: "CN(C)CC/C=C1\\c2ccccc2Sc2ccc(Cl)cc21"
  Assigned class: "satisfied"
- Molecule: "Cc1ccc(/C=C2\\CSc3ccc(F)cc3C2=O)cc1"
  Assigned class: "satisfied"
- Molecule: "CCN(CC)CCCC(C)Nc1ccnc2cc(Cl)ccc12 (configuration not stated)"
  Assigned class: "satisfied"
- Molecule: "CCCCCCCCCCCCCCCC[N+](C)(C)C"
  Assigned class: "satisfied"
- Molecule: "Oc1cc(Cl)ccc1Oc1ccc(Cl)cc1Cl"
  Assigned class: "satisfied"
- Molecule: "CN(C)CCCOc1nn(Cc2ccccc2)c2ccccc12"
  Assigned class: "satisfied"
- Molecule: "CC1=C(C(C)O)C2=NC1C=c1[nH]c(c(C)c1C(C)O)=Cc1[nH]c(c(CCC(=O)O)c1C)C=c1[nH]c(c(C)c1CCC(=O)O)=C2 (configuration not stated)"
  Assigned class: "not satisfied"
- Molecule: "CCOC(=O)CSC(=S)NCc1ccc(C)cc1"
  Assigned class: "satisfied"
- Molecule: "Cc1c(Cc2ccc(F)cc2)c(=O)oc2cc(O)ccc12"
  Assigned class: "satisfied"
- Molecule: "C[N+](C)(C)CCCCCC[N+](C)(C)C"
  Assigned class: "not satisfied"
- Molecule: "Cc1nn(Cc2cccc(C(=O)Nc3ccc(Cl)cc3)c2)c(C)c1Br"
  Assigned class: "not satisfied"
- Molecule: "CN1CCC(=C2c3ccccc3C=Cc3ccccc32)CC1"
  Assigned class: "satisfied"
- Molecule: "C[C@H]1CC2C([C@@H](O)C[C@@]3(C)C2CC[C@]3(O)C(=O)CO)[C@@]2(C)C=CC(=O)C=C12 (some centres not stated)"
  Assigned class: "not satisfied"
- Molecule: "c1ccc(N=Nc2ccccc2)cc1"
  Assigned class: "satisfied"
- Molecule: "CN1CCC(=C2c3ccccc3CC(=O)c3sccc32)CC1"
  Assigned class: "not satisfied"
